Data origin: the supplement of paper PMC10627819

Test system: S. pneumoniae D39V
Test: Bliss interaction score (quartile over a dose matrix) (fitness difference); higher = more antagonism (negative = synergy);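 also: first quartile when negative (synergy) and third quartile when positive (antagonism)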
Conditions: main component drawn
measure_name: Bliss interaction score
API doc: respond with a numeric literal and nothing else, no unit.

Examples with their reported Bliss interaction score follow.
- compound: "CNC(C)C1CCC(N)C(OC2C(N)CC(N)C(OC3OCC(C)(O)C(NC)C3O)C2O)O1 (centres undefined) [Gentamicin] + CCC[C@@H]1C[C@@H](C(=O)N[C@@H]([C@H]2O[C@H](SC)[C@H](O)[C@@H](O)[C@H]2O)[C@@H](C)O)N(C)C1 [Lincomycin]"
  Bliss interaction score: -0.0859
- compound: "CNC(C)C1CCC(N)C(OC2C(N)CC(N)C(OC3OCC(C)(O)C(NC)C3O)C2O)O1 (centres undefined) [Gentamicin] + Cn1nnc(-c2ccc(-c3ccc(N4C[C@H](CO)OC4=O)cc3F)cn2)n1 [Tedizolid]"
  Bliss interaction score: -0.112
- compound: "CNC(C)C1CCC(N)C(OC2C(N)CC(N)C(OC3OCC(C)(O)C(NC)C3O)C2O)O1 (centres undefined) [Gentamicin] + CN(N=O)C(=O)N[C@@H](C=O)[C@@H](O)[C@H](O)[C@H](O)CO [Streptozotocin]"
  Bliss interaction score: 0.0654

Okay, next one:
Task item: What does the record list as Bliss interaction score for CNC(C)C1CCC(N)C(OC2C(N)CC(N)C(OC3OCC(C)(O)C(NC)C3O)C2O)O1 (centres undefined) [Gentamicin] + CN[C@@H]1[C@H](O)[C@H](NC)[C@H]2O[C@@]3(O)C(=O)C[C@@H](C)O[C@H]3O[C@@H]2[C@H]1O [Spectinomycin] ?
Reply: 0.0871

----------
System: S. aureus DSM 20231
Experiment: Bliss interaction score (quartile over a dose matrix) (fitness difference); higher = more antagonism (negative = synergy)
measure_name: Bliss interaction score

Examples with their reported Bliss interaction score follow.
- compound: "O=C(O)[C@H]1/C(=C/CO)O[C@@H]2CC(=O)N21 [Clavulanic] + N[C@@H]1CONC1=O [CycloserineD]"
  assayed_target: "S. aureus DSM 20231"
  Bliss interaction score: 0.116
- compound: "Cc1onc(-c2ccccc2)c1C(=O)N[C@@H]1C(=O)N2[C@@H]1SC(C)(C)[C@@H]2C(=O)O [Oxacillin] + CCN(CC)CCOC(=O)c1ccc(N)cc1 [Procaine]"
  assayed_target: "S. aureus DSM 20231"
  Bliss interaction score: -0.0703
- compound: "O=C(O)[C@H]1/C(=C/CO)O[C@@H]2CC(=O)N21 [Clavulanic] + CO[C@@H]1[C@@H](OC(N)=O)[C@@H](O)[C@H](Oc2ccc3c(O)c(NC(=O)c4ccc(O)c(CC=C(C)C)c4)c(=O)oc3c2C)OC1(C)C [Novobiocin]"
  assayed_target: "S. aureus DSM 20231"
  Bliss interaction score: 0.116

Task item: What does the record list as Bliss interaction score for CC1=C(C(=O)O)N2C(=O)[C@@H](NC(=O)[C@H](N)c3ccccc3)[C@H]2SC1 [Cephalexin] + CN[C@H](CC(C)C)C(=O)N[C@H]1C(=O)N[C@@H](CC(N)=O)C(=O)N[C@H]2C(=O)N[C@H]3C(=O)N[C@H](C(=O)N[C@H](C(=O)O)c4cc(O)cc(O)c4-c4cc3ccc4O)[C@H](O)c3ccc(c(Cl)c3)Oc3cc2cc(c3O[C@@H]2O[C@H](CO)[C@@H](O)[C@H](O)[C@H]2O[C@H]2C[C@](C)(N)[C@H](O)[C@H](C)O2)Oc2ccc(cc2Cl)[C@H]1O [Vancomycin] ?
Reply: 0.0385

Task item: Same for O=C(O)[C@H]1/C(=C/CO)O[C@@H]2CC(=O)N21 [Clavulanic] + C[C@@H]1O[C@@H]1P(=O)(O)O [Fosfomycin]
Reply: 0.0474

----------
Test system: S. aureus DSM 20231
Assay: Bliss interaction score (quartile over a dose matrix) (fitness difference); higher = more antagonism (negative = synergy)
measure_name: Bliss interaction score

Task item: What does the record list as Bliss interaction score for Clc1ccc(COC(Cn2ccnc2)c2ccc(Cl)cc2Cl)c(Cl)c1 (stereo not given) [Miconazole] + CO[C@@H]1[C@@H](OC(N)=O)[C@@H](O)[C@H](Oc2ccc3c(O)c(NC(=O)c4ccc(O)c(CC=C(C)C)c4)c(=O)oc3c2C)OC1(C)C [Novobiocin] ?
Reply: 0.0483

Task item: Same for Clc1ccc(COC(Cn2ccnc2)c2ccc(Cl)cc2Cl)c(Cl)c1 (stereo not given) [Miconazole] + CN(C)c1cc(NC(=O)CNC(C)(C)C)c(O)c2c1C[C@H]1C[C@H]3[C@H](N(C)C)C(O)=C(C(N)=O)C(=O)[C@@]3(O)C(O)=C1C2=O [Tigecycline]
Reply: 0.0455

Task item: Same for O=C(O)[C@H]1/C(=C/CO)O[C@@H]2CC(=O)N21 [Clavulanic] + Clc1ccc(COC(Cn2ccnc2)c2ccc(Cl)cc2Cl)c(Cl)c1 [Miconazole]
Reply: 0.101

Task item: Same for CC[C@H]1OC(=O)[C@H](C)[C@@H](O[C@H]2C[C@@](C)(OC)[C@@H](O)[C@H](C)O2)[C@H](C)[C@@H](O[C@@H]2O[C@H](C)C[C@H](N(C)C)[C@H]2O)[C@](C)(O)C[C@@H](C)CN(C)[C@H](C)[C@@H](O)[C@]1(C)O [Azithromycin] + CC1=C\[C@@H](O)CC(=O)Cc2nc(co2)C(=O)N2CCC=C2C(=O)O[C@H](C(C)C)[C@H](C)/C=C/C(=O)NC\C=C\1 [Virginiamycin M1]
Reply: -0.0726

Task item: Same for Clc1ccc(COC(Cn2ccnc2)c2ccc(Cl)cc2Cl)c(Cl)c1 (stereo not given) [Miconazole] + CN(N=O)C(=O)N[C@@H](C=O)[C@@H](O)[C@H](O)[C@H](O)CO [Streptozotocin]
Reply: 0.039

----------
Test system: S. pneumoniae D39V
Test: Bliss interaction score (quartile over a dose matrix) (fitness difference); higher = more antagonism (negative = synergy)
# Lookup of reported Bliss interaction score keyed by entry

Task item: What does the record list as Bliss interaction score for CC1=C(C(=O)O)N2C(=O)[C@@H](NC(=O)[C@H](N)c3ccccc3)[C@H]2SC1 [Cephalexin] + Cn1nnc(-c2ccc(-c3ccc(N4C[C@H](CO)OC4=O)cc3F)cn2)n1 [Tedizolid] ?
Reply: 0.304

Task item: Same for CC[C@H]1OC(=O)[C@H](C)[C@@H](O[C@H]2C[C@@](C)(OC)[C@@H](O)[C@H](C)O2)[C@H](C)[C@@H](O[C@@H]2O[C@H](C)C[C@H](N(C)C)[C@H]2O)[C@](C)(O)C[C@@H](C)CN(C)[C@H](C)[C@@H](O)[C@]1(C)O [Azithromycin] + COc1cccc2c1C(=O)c1c(O)c3c(c(O)c1C2=O)C[C@@](O)(C(=O)CO)C[C@@H]3O[C@H]1C[C@H](N)[C@H](O)[C@H](C)O1 [Doxorubicin]
Reply: -0.0571

Task item: Same for Cc1onc(-c2ccccc2)c1C(=O)N[C@@H]1C(=O)N2[C@@H]1SC(C)(C)[C@@H]2C(=O)O [Oxacillin] + CC1(C)S[C@@H]2[C@H](NC(=O)Cc3ccccc3)C(=O)N2[C@H]1C(=O)O [PenicillinG]
Reply: -0.235

Task item: Same for CC[C@H]1OC(=O)[C@H](C)[C@@H](O[C@H]2C[C@@](C)(OC)[C@@H](O)[C@H](C)O2)[C@H](C)[C@@H](O[C@@H]2O[C@H](C)C[C@H](N(C)C)[C@H]2O)[C@](C)(O)C[C@@H](C)CN(C)[C@H](C)[C@@H](O)[C@]1(C)O [Azithromycin] + CO[C@H]1/C=C/O[C@@]2(C)Oc3c(C)c(O)c4c(O)c(c(/C=N/N5CCN(C)CC5)c(O)c4c3C2=O)NC(=O)/C(C)=C\C=C\[C@H](C)[C@H](O)[C@@H](C)[C@@H](O)[C@@H](C)[C@H](OC(C)=O)[C@@H]1C [Rifampicin]
Reply: -0.0821

----------
# Lookup of reported Bliss interaction score keyed by entry
Test system: B. subtilis 168
Assay: Bliss interaction score (quartile over a dose matrix) (fitness difference); higher = more antagonism (negative = synergy)
API doc: respond with a numeric literal and nothing else, no unit.

- compound: "CC1=C(C(=O)O)N2C(=O)[C@@H](NC(=O)[C@H](N)c3ccccc3)[C@H]2SC1 [Cephalexin] + C[C@@H]1O[C@@H]1P(=O)(O)O [Fosfomycin]"
  quantitative_readout: -0.0491
- compound: "Cc1cc(NS(=O)(=O)c2ccc(N)cc2)no1 [Sulfamethoxazol] + CN(C)c1cc(NC(=O)CNC(C)(C)C)c(O)c2c1C[C@H]1C[C@H]3[C@H](N(C)C)C(O)=C(C(N)=O)C(=O)[C@@]3(O)C(O)=C1C2=O [Tigecycline]"
  quantitative_readout: 0.0319
- compound: "Cc1cc(NS(=O)(=O)c2ccc(N)cc2)no1 [Sulfamethoxazol] + CC[C@H]1OC(=O)[C@H](C)C(=O)[C@H](C)[C@@H](O[C@@H]2O[C@H](C)C[C@H](N(C)C)[C@H]2O)[C@](C)(OC)C[C@@H](C)C(=O)[C@H](C)[C@H]2N(CCCCn3cnc(-c4cccnc4)c3)C(=O)O[C@]12C [Telithromycin]"
  quantitative_readout: -0.0301

Task item: // fetch B. subtilis 168 Bliss interaction score for CC[C@H]1OC(=O)[C@H](C)[C@@H](O[C@H]2C[C@@](C)(OC)[C@@H](O)[C@H](C)O2)[C@H](C)[C@@H](O[C@@H]2O[C@H](C)C[C@H](N(C)C)[C@H]2O)[C@](C)(O)C[C@@H](C)CN(C)[C@H](C)[C@@H](O)[C@]1(C)O [Azithromycin] + C[n+]1ccc(-c2cc[n+](C)cc2)cc1 [Paraquat]
Reply: 0.0865
